Biological target: human JAK1 (a.a. 837-1142) (Homo sapiens, UniProt P23458)
Construct: human JAK1 (a.a. 837-1142); His tag (N); made in house; host or cells: insect cells (baculovirus)
Sequence (P23458 849-1154): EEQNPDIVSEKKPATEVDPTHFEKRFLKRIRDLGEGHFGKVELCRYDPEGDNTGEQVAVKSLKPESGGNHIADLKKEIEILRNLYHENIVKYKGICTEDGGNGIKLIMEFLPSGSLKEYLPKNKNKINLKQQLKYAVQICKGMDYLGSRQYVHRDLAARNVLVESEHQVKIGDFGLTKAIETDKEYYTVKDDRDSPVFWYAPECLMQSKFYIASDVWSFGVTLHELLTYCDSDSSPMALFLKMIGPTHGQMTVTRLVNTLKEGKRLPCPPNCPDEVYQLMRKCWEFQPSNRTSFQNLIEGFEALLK
Assay: In vitro JAK kinase assay (HTRF, phosphorylation of a biotinylated peptide), JAK1
Assay type: biochemical
Conditions: Table D1; read-out: JAK1 IC50
pIC50: −log10 of the molar value. Counter-ions that a name gives are not always drawn.
observable: pIC50

Consider the following illustrative entries.
> print(dat)
                                   compound  observable  endpoint.result
1  [O-][S+]1Cc2cccc(c2)Nc2nc(ncc2Cl)Nc2cccc1c2 (stereo not shown) [Example D3, trifluoroacetate]       pIC50             7.60
2  O=C(COc1ccc2cc1CCc1cncc(c1)Nc1ncc(Cl)c(n1)N2)N1CCN(c2noc3ccccc23)CC1 [Example D250, tris(trifluoroacetate)]       pIC50             7.37
3  O=C(COc1ccc2cc1CCc1cncc(c1)Nc1ncc(Cl)c(n1)N2)N1CCN(c2ccccc2)CC1 [Example D234, tris(trifluoroacetate)]       pIC50             7.39

[1] O=C(C[C@@H]1CCN(C(=O)c2ccno2)C1)Nc1ccc2cc1CCc1cncc(c1)Nc1ncc(Cl)c(n1)N2 [Example D120, bis(trifluoroacetate)]
[2] COC(=O)c1cc2cc(c1)OCCSc1cccc(c1)Nc1nc(ncc1Cl)N2 [Example D43, trifluoroacetate]
Would you let me know which has the greater pIC50 value, 1 or 2 ? Reply with the label of the item you choose.
2

[I] O=C(Nc1ccccc1F)N1CCC(CCOc2ccc3cc2CCc2cncc(c2)Nc2ncc(Cl)c(n2)N3)CC1 [Example D170, bis(trifluoroacetate)]
[II] Clc1cnc2nc1Nc1cccc(c1)OCCSc1cccc(c1)N2 [Example D15, trifluoroacetate]
Which of the two gives a bigger number for pIC50: I or II ? Your choice should be expressed through its label.
I
(I: 7.64, II: 7.03)

[I] Cc1cc(C(=O)N2CCC(Nc3ccc4cc3CCc3cncc(c3)Nc3ncc(Cl)c(n3)N4)CC2)no1 [Example D160, tris(trifluoroacetate)]
[II] O=C(C[C@@H]1CCN(c2nc3cccnc3o2)C1)Nc1ccc2cc1CCc1cncc(c1)Nc1ncc(Cl)c(n1)N2 [Example D140, tris(trifluoroacetate)]
Of I and II , which one carries the higher reported pIC50? // output: label of the selected item
II
(II: 8.07, I: 6.61)

[A] Cc1cc(C(=O)N2CC[C@H](CC(=O)Nc3ccc4cc3CCc3cncc(c3)Nc3ncc(Cl)c(n3)N4)C2)no1 [Example D109, bis(trifluoroacetate)]
[B] O=C(Nc1ccccc1)N1CCN(c2cc(-c3cc4cc(c3)Nc3ncc(Cl)c(n3)Nc3cccc(c3)OCC4)ccn2)CC1 [Example D44, bis(trifluoroacetate)]
[C] Cc1occc1NC(=O)N1CCC(CCOc2ccc3cc2CCc2cncc(c2)Nc2ncc(Cl)c(n2)N3)CC1 [Example D164, bis(trifluoroacetate)]
[D] O=C(C[C@H]1CCCN(C(=O)Nc2ccccc2)C1)Nc1ccc2cc1CCc1cncc(c1)Nc1ncc(Cl)c(n1)N2 [Example D199, bis(trifluoroacetate)]
Which order do these items take when sorted by rising pIC50? List them. Please, when replying, give the labels in the order that was requested.
C, A, D, B

[A] O=C(c1ccc(F)cc1F)N1CCC(CCNc2ccc3cc2CCc2cncc(c2)Nc2ncc(Cl)c(n2)N3)CC1 [Example D220, tris(trifluoroacetate)]
[B] O=C(C[C@H]1CCN(C(=O)Nc2ccc(F)cc2)C1)Nc1ccc2cc1CCc1cncc(c1)Nc1ncc(Cl)c(n1)N2 [Example D102, bis(trifluoroacetate)]
[C] O=C(C[C@H]1CCN(C(=O)c2ccno2)C1)Nc1ccc2cc1CCc1cncc(c1)Nc1ncc(Cl)c(n1)N2 [Example D105, bis(trifluoroacetate)]
Order these by pIC50, descending, and give the full ranking. Provide the ranking by listing each label in its place in the requested order.
B, A, C
(B: 8.60, A: 7.85, C: 7.60)

[a] O=C(C[C@@H]1CCCN(c2nc3cccnc3o2)C1)Nc1ccc2cc1CCc1cncc(c1)Nc1ncc(Cl)c(n1)N2 [Example D213, tris(trifluoroacetate)]
[b] Clc1cnc2nc1Nc1ccc(NCCC3CCNCC3)c(c1)CCc1cncc(c1)N2 [Example D216, (trifluoroacetate)]
Recorded pIC50 values differ for a and b ; which one is higher? # respond with the chosen item's label
a
(a: 7.96, b: 7.64)

[A] NS(=O)(=O)N1CCN(C(=O)COc2ccc3cc2CCc2cncc(c2)Nc2ncc(Cl)c(n2)N3)CC1 [Example D268, bis(trifluoroacetate)]
[B] Clc1cnc2nc1Nc1cccc(c1)COc1cccc(c1)N2 [Example D6, trifluoroacetate]
[C] CC(=O)N1CCN(c2ccc(-c3cc4cc(c3)Nc3ncc(Cl)c(n3)Nc3cccc(c3)OCC4)cn2)CC1 [Example D37, tris(trifluoroacetate)]
[D] Clc1cnc2nc1Nc1cccc(c1)CNc1cccc(c1)N2 [Example D17, bis(trifluoroacetate)]
Let's sort these by pIC50, smallest first. Go ahead? List the labels, following the order given in the request.
D, B, A, C

[I] O=C(C[C@@H]1CCN(C(=O)Nc2cccc(F)c2)C1)Nc1ccc2cc1CCc1cncc(c1)Nc1ncc(Cl)c(n1)N2 [Example D119, bis(trifluoroacetate)]
[II] NC(=O)N1CCN(C(=O)COc2ccc3cc2CCc2cncc(c2)Nc2ncc(Cl)c(n2)N3)CC1 [Example D270, bis(trifluoroacetate)]
[III] N#Cc1ccc(NC(=O)N2CCN(c3ccc4cc3CCc3cccc(c3)Nc3ncc(Cl)c(n3)N4)CC2)cc1 [Example D93, bis(trifluoroacetate)]
# desc sort on pIC50 across 3 compounds Use the labels to give the ranking in the order requested.
I, II, III
(I: 8.00, II: 7.64, III: 7.34)
